- Test system: NCI-H226 lung
- testSummary: NCI-60 one-dose screen, 48 h (100 = growth as untreated, 0 = no growth, -100 = all killed)
- conditionLabel: 10 µM unless noted
This is part of a sample that, as a whole, favours compounds with a hit. Of some 83,000 tested, about 20% had one in any assay. Calls of active or inactive are those of the source. Rule for the calls: active = growth percent below 10; inactive = the rest.
For each of the compounds below, state its growth.

Provide measured growth on NCI-H226 lung for CC1=CC(=O)C(C(C)=Nc2ccccc2Cl)C(=O)O1 (stereo unspecified) please.
104% (inactive)

Specify the recorded growth for `Cc1ccc(NC(=O)COC(=O)c2ccc(S(=O)(=O)N3CCCCCC3)cc2)cc1` , system: NCI-H226 lung.
90.8% (inactive)

Fetch value of growth on NCI-H226 lung for `CCCCSc1cc(C)nc(N)n1` .
98.6% (inactive)

Please tell me the measured growth for `O=C(Nc1ccc(Oc2ccc(NC(=O)Nc3ccc([N+](=O)[O-])cc3)cc2)cc1)Nc1ccc([N+](=O)[O-])cc1` ; system: NCI-H226 lung.
24.4% (inactive)

Look up and report growth, with NCI-H226 lung as system, for `Clc1ccc(-n2cnc3c(Cl)ncnc32)cc1Cl`
102% (inactive)

Given CC(=O)O[C@H]1C(=O)[C@@]2(C)C([C@H](OC(=O)c3ccccc3)[C@]3(O)C[C@H](OC(=O)[C@H](O)[C@@H](NC(=O)c4ccccc4)c4ccccc4)C(C)=C1C3(C)C)[C@]1(OC(C)=O)CO[C@@H]1C[C@@H]2O (stereo partly specified) , report its growth on NCI-H226 lung.
44.8% (inactive)

Provide NCI-H226 lung growth reading for N#Cc1c2ccccc2c2n1-c1ccccc1OC(c1ccccc1)C2=O (stereo unspecified) .
21.2% (inactive)

# lookup: NCI-H226 lung growth, key = Cc1cc(C)c2c(c1)N1OC(C2)C[C@H]1/C=C/c1ccccc1 (stereo partly specified)
77.6% (inactive)

Fill in: growth on NCI-H226 lung, entry `COc1ccc(/C=N/NC(=O)c2ccc(S(C)(=O)=O)cc2)cc1OC`
93.5% (inactive)

Write growth of `CCCCCCCCCCC[C@@H](C[C@H]1OC(=O)[C@H]1CCCCCC)OC(=O)[C@@H](CC(C)C)NC=O` ; system used: NCI-H226 lung
72.6% (inactive)

Provide growth, tested on NCI-H226 lung, for `CN(C)c1ccc2[nH]c3c(C(N)=O)cc(=O)c(=O)c=3oc2c1` .
87.7% (inactive)

Param request: growth | system NCI-H226 lung | item `C=C(C)[C@@H]1C[C@H](O)Cc2cc(Cl)cc(Cl)c2N1`
100% (inactive)

# return growth of `O=C(Cn1ccnc1)NC(c1ccccc1)c1ccccc1` (system: NCI-H226 lung)
100% (inactive)

Tell me its growth on NCI-H226 lung: `COc1ccc(-c2cncn2-c2ccc(-c3nc4cc(OC)c(OC)c(OC)c4s3)cc2)cc1N`
64.5% (inactive)

State growth (NCI-H226 lung) of `CCN(CC)CCOc1ccccc1-n1c(C)ccc1-c1ccccc1` .
92% (inactive)

# assay system NCI-H226 lung: give growth of `COc1ccc2c(c1)C(=O)c1c-2c(OCCCN(C)C)nc2cc(Br)ccc12`
57.2% (inactive)

Quote growth with test system NCI-H226 lung for `COc1ccc2c(c1)C(=O)/C(=C/c1cccc(OCC(=O)c3ccccc3)c1)CC2`
75.9% (inactive)

Provide the reported growth (system: NCI-H226 lung) for CC[N+](C)(CC)CCCC(C)Nc1ccnc2cc(Cl)ccc12 (stereo unspecified)
96.3% (inactive)

Lab note: record growth of `COc1cc(/C=C2\COc3ccc(O)c(O)c3C2=O)cc(OC)c1` tested on NCI-H226 lung.
68.3% (inactive)

Report the value of growth obtained on NCI-H226 lung for `COc1ccc(-c2noc(N)c2-c2cc(OC)c3c(c2)OCO3)cc1` .
86.3% (inactive)

Write down measured growth (NCI-H226 lung) for this compound. CCC(O)C(C)(C)C (stereo unspecified)
106% (inactive)
